Tested on: CCRIS mutagenicity, Ames/micronucleus/aberration tests
Test: CCRIS mutagenicity studies
Settings: Test System: AMES SALMONELLA TYPHIMURIUM; Strain/Indicator: TA100; Metabolic Activation: NONE; Method: STANDARD PLATE
Active and inactive are the calls of the source. How the calls were made is not given here.
Your response should consist of one outcome taken from true (active), false (inactive)

Worked examples, 3 compounds total:
1. CC1(S(=O)(=O)O)CC(=O)c2ccccc2C1=O (configuration not stated) (tested in a mixture with another compound)	false
2. O=c1c(Cl)c(Cl)cnn1S(=O)(=O)c1ccc(Cl)cc1Cl	false
3. CC(C)=CCC/C(C)=C/C=O	false

For this compound, state the assay outcome: CC(CN1CC(=O)NC(=O)C1)N1CC(=O)NC(=O)C1 (configuration not stated)
false

# repeat for COC(=O)c1oc([N+](=O)[O-])c(-c2ccccc2)c1-c1ccccc1
true

# repeat for COS(=O)(=O)c1ccc(C)cc1
true
